# Test system: recombinant DYRK1A kinase (Homo sapiens (Human))
# Experiment notes: DYRK1A kinase assay (Ser/Thr 18 peptide Z-lyte FRET assay)
# Condition: DYRK1A kinase activity; 15 μM ATP, 1 h room temperature; method text calls the value IC50
Each entry below lists one item and its recorded pEC50 value.
Schema: pEC50 number; meaning minus log10 of the concentration expressed in molar units.

Lab note: measured pEC50 of `FC(F)(F)C1(CNc2ncc3c(-c4ccc5nccn5n4)c[nH]c3n2)CC1` was 8.21

Lab note: measured pEC50 of `c1cc2nc(-c3c[nH]c4nc(NC5CCOCC5)ncc34)ccn2n1` was 8.21

Lab note: measured pEC50 of `CNc1ncc2c(-c3ccn4ncc(C(=O)N5CCN(C)CC5)c4c3)c[nH]c2n1` was 7.23

Lab note: measured pEC50 of `COc1ccc(-c2c[nH]c3nc(NCC(C)(C)F)ncc23)cc1` was 6.63

Lab note: measured pEC50 of `Cc1nc2ccc(-c3c[nH]c4nc(C5CC5)ncc34)nc2n1C(C)C` was 8.82

Lab note: measured pEC50 of `COc1nc(N[C@H]2CC[C@](C)(O)CC2)nc2[nH]cc(-c3cc(F)c4nccn4c3)c12` was 8.96

Lab note: measured pEC50 of `COc1nc(N[C@H]2CC[C@](C)(O)CC2)nc2[nH]cc(-c3ccn4nccc4c3)c12` was 8.80

Lab note: measured pEC50 of `Cc1nc2c(F)cc(-c3c[nH]c4nc(NCC(C)(C)C)ncc34)cc2n1C(C)C` was 8.14

###

# Test system: recombinant DYRK1A kinase (Homo sapiens (Human))
# Experiment notes: DYRK1A kinase assay (Ser/Thr 18 peptide Z-lyte FRET assay)
# Condition: DYRK1A kinase activity; 15 μM ATP, 1 h room temperature; method text calls the value IC50
Each entry below lists one item and its recorded pEC50 value.
Schema: pEC50 number; meaning minus log10 of the concentration expressed in molar units.

# Entry smiles, pEC50
rows = [
    ("CN1CCN(c2ccc(CNc3ncc4c(-c5ccn6ncnc6c5)c[nH]c4n3)cn2)CC1", 7.28),
]

Lab note: measured pEC50 of `CN1CCN(c2ccc(CNc3ncc4c(-c5ccc6c(c5)CNC6=O)c[nH]c4n3)cn2)CC1` was 7.01

Lab note: measured pEC50 of `Cc1cn2cc(-c3c[nH]c4nc(NC5CCC(F)(F)CC5)ncc34)cc(F)c2n1` was 7.34

Lab note: measured pEC50 of `CN1CCN(c2cc(Nc3ncc4c(-c5ccc6c(c5)C(C)(C)CNC6=O)c[nH]c4n3)ccn2)CC1` was 8.68

Lab note: measured pEC50 of `Cc1cn2cc(-c3c[nH]c4nc(C5CC5)ncc34)cc(F)c2n1` was 6.57

Lab note: measured pEC50 of `CN1CCC(NC(=O)c2cnn3ccc(-c4c[nH]c5nc(N)ncc45)cc23)CC1` was 8.47

Lab note: measured pEC50 of `COc1nc(N[C@H]2CC[C@@](C)(O)CC2)nc2[nH]cc(-c3ccc4nccn4c3)c12` was 8.80

###

# Test system: recombinant DYRK1A kinase (Homo sapiens (Human), UniProt Q13627)
# Experiment notes: DYRK1A kinase assay (Ser/Thr 18 peptide Z-lyte FRET assay)
# Condition: DYRK1A kinase activity; 15 μM ATP, 1 h room temperature; method text calls the value IC50
pEC50: −log10 of the molar value.
Is pEC50 at least 8? Then 1. If not, 0.

# Entry smiles, Answer label
data = [
    ("COCCO[C@H]1CC[C@@H](Nc2ncc3c(-c4ccn5nccc5c4)c[nH]c3n2)CC1", 1),
    ("CCNc1ncc2c(-c3ccc4nccn4c3)c[nH]c2n1", 1),
]

Next item in the queue.
Enquiry: Answer whether pEC50 of `Fc1cc(-c2c[nH]c3nc(C4CC4)ncc23)cn2ccnc12` is greater than or equal to 8.
Return: 0

Every entry's value here was drawn from patent US20250129104A1.
